So I've got a bunch of compounds here, and I need their Ki values.
test: Displacement of [3H]nemonapride from D2-like receptor in Wistar rat striatum homogenate; format: tissue-based
Give bare numbers, in nM.

Record excerpt, results attached:
smiles=Fc1ccc(-n2cc(CN3CCN(c4ccccc4)CC3)cn2)cc1 recorded_measurement=70
smiles=c1ccc(N2CCN(Cc3cn(-c4ccccc4)nn3)CC2)cc1 recorded_measurement=730
smiles=c1ccc(N2CCN(Cc3cnn(-c4ccccc4)c3)CC2)cc1 recorded_measurement=110

Note: attention shifts to another entry.
Problem: Consider the compound "Clc1ccc(-n2cc(CN3CCN(c4ccccc4)CC3)cn2)cc1" and give its measured Ki.
Solution: 110
